Measured values drawn from the supplement of paper PMC10065799 for this set.

TESTED_TARGET: SHP2-C SH2;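 further: peptide library displayed on the E. coli surface as eCPX fusions, selected cells deep-sequenced, score is each peptide's frequency after selection divided by its frequency in the input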
METHOD_DESCRIPTION: SH2 binding enrichment of the phosphorylated peptide, bacterial display (enrichment ratio); higher = better substrate or ligand; peptides without Tyr show the background
TEST_READOUT: SH2 binding enrichment

SEQUENCE	TESTED_TARGET	SH2 binding enrichment
SLVGCYNLTFM [HS6ST3_Y323]	SHP2-C SH2	0.553
DPAFGYEDFTR [SESN2_Y323_T320A]	SHP2-C SH2	0.693
CERLPYDASKW [FLT1_Y815]	SHP2-C SH2	0.72
DTLLEYLENPK [CYCS_Y68_M66L]	SHP2-C SH2	0.735
ALHRPYGCDVE [ABL2_Y80]	SHP2-C SH2	0.72

a. LKEIHYPPFTD [ALDH3B2_Y362_YF]
b. FKWAVYCIIGR [NUP93_Y391_R388W_YF]
c. HISGVYKLPPD [ANGPTL7_Y145_R140H]
Order the items by recorded SH2 binding enrichment; the first position goes to the largest value. Please reply with the labels ordered as requested. Many thanks. b, c, a

1. FEEDSYVKRSQ [RET_Y905_YF]
2. KVKPIYLHTQG [AR_Y916_F917L]
Given 1 and 2 , report the one with the higher recorded SH2 binding enrichment. Mark your answer with the label of the selected entry. 2
